Reference source for all entries: patent US20200361895A1

study.system: NLRP3 (Homo sapiens, UniProt Q96P20)
Sequence (Q96P20 whole entry): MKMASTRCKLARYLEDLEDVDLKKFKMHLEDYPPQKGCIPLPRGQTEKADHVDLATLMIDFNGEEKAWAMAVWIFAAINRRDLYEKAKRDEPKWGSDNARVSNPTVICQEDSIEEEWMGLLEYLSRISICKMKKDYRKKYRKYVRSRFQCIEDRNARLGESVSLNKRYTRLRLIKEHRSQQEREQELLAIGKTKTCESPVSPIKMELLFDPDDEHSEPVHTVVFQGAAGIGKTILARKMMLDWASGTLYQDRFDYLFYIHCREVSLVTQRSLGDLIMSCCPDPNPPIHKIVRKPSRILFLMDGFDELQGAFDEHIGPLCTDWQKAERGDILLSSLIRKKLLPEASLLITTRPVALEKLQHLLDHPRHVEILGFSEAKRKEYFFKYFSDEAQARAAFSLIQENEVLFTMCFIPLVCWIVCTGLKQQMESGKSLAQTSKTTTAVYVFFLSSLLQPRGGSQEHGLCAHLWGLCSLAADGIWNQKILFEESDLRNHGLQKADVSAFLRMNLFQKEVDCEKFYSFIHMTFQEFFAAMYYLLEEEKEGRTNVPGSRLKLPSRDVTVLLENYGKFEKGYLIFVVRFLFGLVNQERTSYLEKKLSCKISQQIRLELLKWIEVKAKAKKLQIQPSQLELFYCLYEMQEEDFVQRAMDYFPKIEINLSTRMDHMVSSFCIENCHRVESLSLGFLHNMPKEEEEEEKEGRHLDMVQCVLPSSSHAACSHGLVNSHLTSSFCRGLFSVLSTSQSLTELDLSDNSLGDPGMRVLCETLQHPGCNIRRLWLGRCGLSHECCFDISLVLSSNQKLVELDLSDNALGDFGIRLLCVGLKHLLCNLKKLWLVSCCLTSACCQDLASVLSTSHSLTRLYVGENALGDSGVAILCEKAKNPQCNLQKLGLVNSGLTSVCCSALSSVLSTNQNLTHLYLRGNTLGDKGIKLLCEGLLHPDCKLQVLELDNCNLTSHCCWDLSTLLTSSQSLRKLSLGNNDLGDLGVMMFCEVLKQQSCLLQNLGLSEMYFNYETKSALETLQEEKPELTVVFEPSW
assay.overview: THP-1 cells pyroptosis assay (LPS + nigericin, resazurin readout; THP IC50)
Type: cell-based
Design: Seed THP-1 cells (25,000 cells/well) containing 1.0 μg/ml LPS in 40 μl of RPMI medium; host or cells: THP-1 cells
Where a name gives a salt, the structure may show the parent alone.
Assign IC50 to each entry below.

Guide cases for IC50, answers given:
| compound | IC50 |
| --- | --- |
| COc1cc(-c2ccc3c(c2NC(=O)NS(=O)(=O)c2nc(C)cc(C)n2)CCC3)ccn1 | ≤ 500 nM |
| CC(C)n1ccc(S(=O)(=O)NC(=O)Nc2c(-c3ccnc(C4CC4)c3)ccc3c2CCC3)n1 [Example 295, sodium salt] | ≤ 500 nM |
| Cc1cnccc1-c1cc(F)cc(C(C)C)c1NC(=O)NS(=O)(=O)c1ccn(C(C)C)n1 | ≤ 1000 nM |
| [2H]C([2H])([2H])Oc1cc(-c2ccc3c(c2NC(=O)NS(=O)(=O)c2ccn(C4CC4)n2)CCC3)ccn1 [Example 279, sodium salt] | ≤ 500 nM |
| COc1cc(-c2ccc3c(c2NC(=O)NS(=O)(=O)c2ccc(CN(C)C)cc2)CCC3)ccn1 [Example 251, sodium salt] | ≤ 500 nM |

Below are 5 compounds. Give each one its IC50.
1. CC(C)Oc1cc(-c2ccc3c(c2NC(=O)NS(=O)(=O)c2ccn(C(C)C)n2)CCC3)ccn1
2. CC#Cc1cc(-c2cc(F)cc(C(C)C)c2NC(=O)NS(=O)(=O)c2ccn(C(C)C)n2)ccn1
3. COc1cc(-c2c(C)cc3c(c2NC(=O)NS(=O)(=O)c2ccn(C4CC4)n2)CCC3)ccn1
4. COc1cc(-c2ccc3c(c2NC(=O)NS(=O)(=O)c2ncn(C(C)C)n2)CCC3)ccn1 [Example 232, sodium salt]
5. COc1cc(-c2ccc3c(c2NC(=O)NS(=O)(=O)c2cnc(=O)n(C(C)C)c2)CCC3)ccn1 [Example 95, sodium salt]

["≤ 500 nM", "≤ 500 nM", "≤ 500 nM", "≤ 500 nM", "≤ 500 nM"]

Below are 7 compounds. Give each one its IC50.
1. CC(C)c1cc(F)cc(-c2cccnc2)c1NC(=O)NS(=O)(=O)c1ccn(C[C@@H](C)O)n1
2. CC(C)(CN1CCC1)n1ccc(S(=O)(=O)NC(=O)Nc2c(-c3ccnc(OC4CC4)c3)ccc3c2CCC3)n1 [Example 274, sodium salt]
3. COc1cc(-c2ccc3c(c2NC(=O)NS(=O)(=O)c2cnn(C(C)C)c2)CCC3)ccn1 [Example 250, sodium salt]
4. COc1cc(-c2ccc3c(c2NC(=O)NS(=O)(=O)c2ccn(C(C)(C)CN4CCC4)n2)CCC3)ccn1
5. CC(C)c1cc(F)cc(-c2ccnc(C#N)c2)c1NC(=O)NS(=O)(=O)C(C)c1ccccc1 (centres unmarked)
6. COc1cc(-c2cc(F)cc(C(C)C)c2NC(=O)NS(=O)(=O)c2nccnc2C(F)F)ccn1
7. COc1cc(-c2ccc3c(c2NC(=O)NS(=O)(=O)Cc2ccccc2)CCC3)ccn1

≤ 500 nM
≤ 500 nM
≤ 500 nM
≤ 500 nM
≤ 5000 nM
≤ 5000 nM
≤ 5000 nM

Below are 7 compounds. Give each one its IC50.
1. Cc1ccc(-c2cc(F)cc(C(C)C)c2NC(=O)NS(=O)(=O)c2ccn(C(C)C)n2)cn1 [Example 15, ammonium salt]
2. COc1cc(-c2cc(F)c3c(c2NC(=O)NS(=O)(=O)c2ccn(C(C)(C)CN4CCC4)n2)CCC3)ccn1 [Example 173, sodium salt]
3. COc1cc(-c2ccc3c(c2NC(=O)NS(=O)(=O)c2cnn(C4CC4)c2)CCC3)ccn1
4. COc1cc(-c2ccc3c(c2NC(=O)NS(=O)(=O)c2ccn(CCF)n2)CCC3)ccn1 [Example 249, sodium salt]
5. CN(C)CCn1ccc(S(=O)(=O)NC(=O)Nc2c(-c3cccnc3)cc(F)c3c2CCC3)n1
6. N#Cc1cc(-c2ccc3c(c2NC(=O)NS(=O)(=O)c2cnn(CC(F)F)c2)CCC3)ccn1 [Example 231, sodium salt]
7. O=C(Nc1c(-c2ccncc2)cc(F)c2c1CCC2)NS(=O)(=O)C1CN(Cc2cccnc2)C1

≤ 5000 nM
≤ 500 nM
≤ 500 nM
≤ 500 nM
≤ 500 nM
≤ 500 nM
≤ 1000 nM
